tested on: Plasmopara viticola; assay: Plasmopara test (grapevine) / protective; assay type: in vivo; conditions: young grapevine plants sprayed, active ingredient concentration 10 ppm; evaluation 6 days after inoculation; 100% = no infection
QUANTITY_MEASURED: % eff. (%)
One number for each entry, in %.

>  <COMPOUND>
Cc1ccc(C)c(NC(=S)N2CCC(c3nc(C4=NOC(C(F)(F)c5c(F)cccc5F)C4)cs3)CC2)c1 (centres unmarked)

>  <% eff. / %>
92

$$$$
>  <COMPOUND>
Cc1cc(C(F)(F)F)nn1CC(=O)N1CCC(c2nc(C3=NOC(C(F)(F)c4ccccc4)C3)cs2)CC1 (centres unmarked)

>  <% eff. / %>
94

$$$$
>  <COMPOUND>
O=C(Nc1cc(C(F)F)ccc1C(F)F)N1CCC(c2nc(C3=NOC(C(F)(F)c4ccccc4)C3)cs2)CC1 (centres unmarked)

>  <% eff. / %>
87

$$$$
>  <COMPOUND>
O=C(CCC1CC(c2csc(C3CCN(C(=O)Cn4nc(C(F)F)cc4C(F)F)CC3)n2)=NO1)c1ccccc1 (centres unmarked)

>  <% eff. / %>
96

$$$$

stdin: Could you share what % eff. was measured for Cc1cc(C(F)(F)F)nn1CC(=O)N1CCC(c2nc(C3=NOC(COc4c(F)cccc4F)C3)cs2)CC1 (centres unmarked) , tested on Plasmopara viticola?
stdout: 97

###

details: LC-MS determination in the acidic range, pH 2.7, 0.1% aqueous formic acid and acetonitrile
Marks after values point to notes of the source that are not given here.
QUANTITY_MEASURED: Log P [a]

Would you please look over these solved cases?
>  <COMPOUND>
Fc1cccc(F)c1C(F)C1CC(c2csc(C3CCN(C(=S)Cn4nc(C(F)F)cc4C(F)F)CC3)n2)=NO1 (stereo not drawn)

>  <RESULT>
3.81^[a]

$$$$
>  <COMPOUND>
CC(C)(c1ccccc1)C1CC(c2csc(C3CCN(C(=O)Cn4nc(C(F)F)cc4C(F)F)CC3)n2)=NO1 (stereo not drawn)

>  <RESULT>
3.79^[a]

$$$$
>  <COMPOUND>
O=C(Cn1nc(C(F)F)cc1C(F)F)N1CCC(c2nc(C3=NOC(C(F)c4ccccc4)C3)cs2)CC1 (stereo not drawn)

>  <RESULT>
3.23^[a]

$$$$
>  <COMPOUND>
O=C(Cn1nc(C(F)F)cc1C(F)F)N1CCC(c2nc(C3=NOC(C(O)c4ccccc4)C3)cs2)CC1 (stereo not drawn)

>  <RESULT>
2.53^[a]

$$$$
>  <COMPOUND>
CC(C)(c1ccccc1)C1CC(c2csc(C3(F)CCN(C(=O)Cn4nc(C(F)F)cc4C(F)F)CC3)n2)=NO1 (stereo not drawn)

>  <RESULT>
4.03^[a]

$$$$
>  <COMPOUND>
Fc1cccc(F)c1C(F)(F)C1CC(c2csc(C3CCN(C(=S)Cn4nc(C(F)F)cc4C(F)F)CC3)n2)=NO1 (stereo not drawn)

>  <RESULT>
3.94^[a]

$$$$
>  <COMPOUND>
Cc1ccc(C)c(NC(=S)N2CCC(c3nc(C4=NOC(C(F)c5c(F)cccc5F)C4)cs3)CC2)c1 (stereo not drawn)

>  <RESULT>
3.80^[a]

$$$$
>  <COMPOUND>
O=C(Nc1cc(C(F)F)ccc1C(F)F)N1CCC(c2nc(C3=NOC(C(F)(F)c4c(F)cccc4F)C3)cs2)CC1 (stereo not drawn)

>  <RESULT>
3.61^[a]

$$$$
>  <COMPOUND>
CON=Cc1ccccc1OCC1CC(c2csc(C3CCN(C(=O)Cn4nc(C(F)F)cc4C(F)F)CC3)n2)=NO1 (mixture of isomers)

>  <RESULT>
3.39^[a]; 3.39^[b]

$$$$
>  <COMPOUND>
Cc1ccc(Cl)cc1NC(=O)N1CCC(c2nc(C3=NOC(COc4c(Cl)cccc4Cl)C3)cs2)CC1 (stereo not drawn)

>  <RESULT>
4.08^[a]; 4.08^[b]

$$$$

I need Log P [a] for every entry listed below, if you could help.
1. O=Cc1ccccc1OCC1CC(c2csc(C3CCN(C(=O)Cn4nc(C(F)F)cc4C(F)F)CC3)n2)=NO1 (stereo not drawn)
2. Cc1cc(C(F)(F)F)nn1CC(=O)N1CCC(c2nc(C3=NOC(C(F)c4c(F)cccc4F)C3)cs2)CC1 (stereo not drawn)

stdout:
1: 2.83^[a]; 2.83^[b]; 2: 3.48^[a]

###

Record form. Attribute: Log P [a]. Fill in for each entry.
details: LC-MS determination in the acidic range, pH 2.7, 0.1% aqueous formic acid and acetonitrile

Would you please look over these solved cases?
>  <MOLECULE>
O=C(Nc1cc(C(F)F)ccc1C(F)F)N1CCC(c2nc(C3=NOC(C(F)c4c(F)cccc4F)C3)cs2)CC1 (stereo not drawn)

>  <Log P [a]>
3.60^[a]

$$$$
>  <MOLECULE>
O=C(Cn1nc(C(F)F)cc1C(F)F)N1CCC(c2nc(C3=NOC(C(F)(F)c4c(F)cccc4F)C3)cs2)CC1 (stereo not drawn)

>  <Log P [a]>
3.47^[a]

$$$$

Turning now to a further molecule:
stdin: Would you kindly share the measured Log P [a] for Cc1ccc(C)c(NC(=O)N2CCC(c3nc(C4=NOC(COc5c(Cl)cccc5Cl)C4)cs3)CC2)c1 (stereo not drawn) ?
stdout: 3.89
